Each entry below lists one item and its recorded MIC value.
System: Escherichia coli
Test: Antibacterial activity against Escherichia coli ATCC 25922 after 24 hrs by micro-broth dilution method
Assay type: functional
Details: ATCC 25922, 24 h
QUANTITY: MIC (µg/mL)

# SMILES_CODE, QUANTITY, UNIT_SPEC, CMP, QUANTITATIVE_READOUT
rows = [
    ("Cl.Fc1ccc(CN(CCn2cnc3ccccc32)CCn2cnc3ccccc32)c(F)c1", "MIC", "µg/mL", ">", 256),
    ("Fc1ccc(CN(CCn2cnc3ccccc32)CCn2cnc3ccccc32)c(F)c1", "MIC", "µg/mL", "=", 128),
    ("Cl.Clc1ccc(CN(CCn2ccnc2)CCn2ccnc2)cc1Cl", "MIC", "µg/mL", "=", 4),
    ("Fc1ccc(CN(CCn2ccnc2)CCn2ccnc2)c(F)c1", "MIC", "µg/mL", "=", 64),
    ("Fc1ccc(CN(CCn2cnc3ccccc32)CCn2cnc3ccccc32)c(F)c1.O=[N+]([O-])O", "MIC", "µg/mL", ">", 256),
    ("Cl.Clc1ccc(CN(CCn2ccnc2)CCn2ccnc2)c(Cl)c1", "MIC", "µg/mL", "=", 16),
    ("Clc1ccc(CN(CCn2cnc3ccccc32)CCn2cnc3ccccc32)c(Cl)c1", "MIC", "µg/mL", "=", 128),
    ("CCn1cc(C(=O)O)c(=O)c2cc(F)c(N3CCNCC3)cc21", "MIC", "µg/mL", "=", 0.5),
    ("Clc1ccc(CN(CCn2cncn2)CCn2cncn2)cc1Cl", "MIC", "µg/mL", "=", 32),
    ("Clc1ccc(CN(CCn2ccnc2)CCn2ccnc2)cc1Cl", "MIC", "µg/mL", "=", 16),
    ("OCCN(CCO)Cc1ccc(Cl)cc1Cl", "MIC", "µg/mL", "=", 256),
    ("Fc1ccc(CN(CCn2ccnc2)CCn2ccnc2)c(F)c1.O=[N+]([O-])O", "MIC", "µg/mL", "=", 32),
]
